- System: hα2A receptor (Homo sapiens, UniProt P08913)
- Construct: expressed in transfected cells; host or cells: CHO cells
- Sequence (P08913 1-465): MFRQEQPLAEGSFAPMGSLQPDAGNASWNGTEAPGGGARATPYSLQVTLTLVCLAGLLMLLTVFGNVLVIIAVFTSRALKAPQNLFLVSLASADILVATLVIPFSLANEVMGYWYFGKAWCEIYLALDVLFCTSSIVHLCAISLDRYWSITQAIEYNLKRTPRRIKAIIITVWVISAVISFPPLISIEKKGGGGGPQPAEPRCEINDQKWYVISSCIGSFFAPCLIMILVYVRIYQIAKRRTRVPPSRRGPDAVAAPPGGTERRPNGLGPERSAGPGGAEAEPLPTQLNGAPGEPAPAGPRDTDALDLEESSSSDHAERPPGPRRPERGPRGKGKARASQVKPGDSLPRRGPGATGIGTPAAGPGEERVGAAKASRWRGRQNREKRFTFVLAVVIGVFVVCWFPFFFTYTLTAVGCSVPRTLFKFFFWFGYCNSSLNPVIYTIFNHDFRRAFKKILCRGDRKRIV
- Method description: Radioligand binding experiment for α2A-adrenergic receptor ([3H]-raulwolscine)
- Condition set: CHO cell membranes with human α2A receptor, [3H]raulwolscine 1 nM; read-out: pIC50 α2A (converted)
Observed property: log10(IC50) (log10 of the value in nM)
Recorded IC50 (log10, nM)

{"Molecule": "CC(=Cc1ccccc1)CN1CCN(CC2ON=C3c4ccc(N(S(C)(=O)=O)S(C)(=O)=O)cc4OCC32)CC1 (stereo not shown)", "System": "hα2A receptor (Homo sapiens, UniProt P08913)", "Reported value": 0.70}
{"Molecule": "CC(=Cc1ccc(F)cc1)CN1CCN(CC2ON=C3c4ccc(NCC5CC5)cc4OCC32)CC1 (stereo not shown)", "System": "hα2A receptor (Homo sapiens, UniProt P08913)", "Reported value": 2.10}
{"Molecule": "COc1cc2c(cc1NCC(C)C)OCC1C2=NOC1CN1CCN(CC(C)=Cc2ccc(F)cc2)CC1 (stereo not shown)", "System": "hα2A receptor (Homo sapiens, UniProt P08913)", "Reported value": 2.30}
{"Molecule": "COc1cc2c(cc1NC(=O)Nc1ccccc1)OCC1C2=NOC1CN1CCN(CC(C)=Cc2ccc(F)cc2)CC1 (stereo not shown)", "System": "hα2A receptor (Homo sapiens, UniProt P08913)", "Reported value": 2.50}
{"Molecule": "COc1cc2c(cc1N1CCOCC1)OCC1C2=NOC1CN1CCN(CC(C)=Cc2ccccc2)CC1 (stereo not shown)", "System": "hα2A receptor (Homo sapiens, UniProt P08913)", "Reported value": 0.20}
{"Molecule": "CCC(C)NC(=O)OCCN(C)c1ccc2c(c1)OCC1C2=NOC1CN1CCN(CC(C)=Cc2ccc(F)cc2)CC1 (stereo not shown)", "System": "hα2A receptor (Homo sapiens, UniProt P08913)", "Reported value": 2.50}

Field: next molecule
Give its log10(IC50) value. Item: C/C(=C\c1ccccc1)CN1CCN(CC2ON=C3c4ccc(N(C)CCN(C)C)cc4OCC32)CC1 (stereo not shown)
0.10
